Tested on: Bscl2-GFP and Rtkn-GFP reporters in mouse embryonic stem (mES) cells
Assay: ToxTracker genotoxicity assay, overall conclusion from Bscl2-GFP and Rtkn-GFP
Settings: positive: >= 2-fold induction at one of 10, 25, 50% cytotoxicity, with or without S9; not genotoxic: <= […] at all
Observation Type: Genotoxicity test result (conclusion)

| Compound | Observation Type | Val |
| --- | --- | --- |
| O=C(NCCCCCCn1c(=O)n(CCCCCCNC(=O)OCCN2CC2)c(=O)n(CCCCCCNC(=O)OCCN2CC2)c1=O)OCCN1CC1 | Genotoxicity test result (conclusion) | genotoxic |
| CC(CN1CC1)OC(=O)NCCCCCCn1c(=O)n(CCCCCCNC(=O)OC(C)CN2CC2)c(=O)n(CCCCCCNC(=O)OC(C)CN2CC2)c1=O (stereo not drawn) | Genotoxicity test result (conclusion) | genotoxic |
